The following molecules were reported with IC50 values on UniProt:O14684 in different studies.
ENDPOINT LABEL: IC50 (nM)

[
  {
    "MOLECULE": "NS(=O)(=O)c1ccccc1NS(=O)(=O)CCc1ccc(OC(F)F)cc1",
    "IC50 (nM)": 1400
  }
]

P. COCCOc1ccc(-c2nc(O)nc(-c3cc(CNC(=O)C(C)(C)C(F)(F)F)ccc3Cl)n2)cc1
Q. CN(Cc1ccc(Cl)c(-c2nc(O)nc(-c3ccccc3)n2)c1)C(=O)C1(C)Cc2ccccc2C1
Incoming: Given the listed records, identify the one among P and Q with higher IC50. Return value: the label identifying the chosen record.
Outgoing: Q

a. NS(=O)(=O)c1ccccc1S(=O)(=O)NC(=O)c1ccc(-c2cc3ccccc3o2)cc1O
b. CC(C)Oc1ccc(-c2ccc3c(c2)c(NS(C)(=O)=O)c(C(=O)O)n3-c2ccc(OC(C)C)cc2)cc1
Incoming: Returns: the label, a or b , whose recorded IC50 is the lower number. Return value: the label identifying the chosen record.
Outgoing: a

P. CO[C@](C)(C(=O)NCc1ccc(Cl)c(-c2nc(O)nc(-c3ccc(Cl)c(C)c3)n2)c1)C(F)(F)F
Q. CCCC(C)C#Cc1ccc(C(=O)NS(=O)(=O)c2ccccc2S(N)(=O)=O)cc1CO (stereo not shown)
R. CC(C)Cc1ccc(-c2nc(O)nc(-c3cc(CN(C)C(=O)C(C)(C)C(F)(F)F)ccc3Cl)n2)cc1
S. CC(C)(C)c1cccc(-c2nc(O)nc(-c3cc(CNC(=O)c4ccccc4)ccc3Cl)n2)c1
T. CC(C)(C)C#Cc1ccc(C(=O)NS(=O)(=O)c2ccccc2S(N)(=O)=O)cc1OCCOCC(F)(F)F
Incoming: Give the ascending ranking of the items by reported IC50. A ranking is expressed here by listing the labels in the requested order.
Outgoing: P, S, R, T, Q

A. CC(C)Oc1ccc(-n2c(C(=O)O)c(CN3CCOCC3)c3cc(-c4ccc(C(C)(C)C)cc4)ccc32)cc1
B. NS(=O)(=O)c1ccc(F)cc1NS(=O)(=O)/C=C/c1ccc(C(F)(F)F)cc1
Incoming: Given the listed records, identify the one among A and B with higher IC50. Return value: the label identifying the chosen record.
Outgoing: A
